- METHOD DESCRIPTION: in vitro
- Set-up: species or system CCD841, HEK293
- TEST PARAMETERS: human, hb2 cells, read-out: HB-2 Cells Viability (%)
PARAMETER: viability at 48 h, 10 µM (%)

- C=CC(=O)N1CCC(c2nc(C(F)(F)F)cs2)CC1 [PCM-0102525]: 95.8
- CN(Cc1cccc(F)c1)C(=O)CCl [PCM-0102747]: 64.5
- O=C(CCl)NCC12CC3CC(CC(Br)(C3)C1)C2 [PCM-0102819]: 109
- O=C(CCl)N1CCN(Cc2ccccc2)C1=O [PCM-0102919]: 102
- Cc1c(Cl)cccc1NC(=O)CCl [PCM-0102130]: 26
- O=C(CCl)NC(=O)Nc1ccc(Br)cc1 [PCM-0102308]: 78.8
- C=CC(=O)N(C1CC1)C1CC(=O)NC1=O (centres unmarked) [PCM-0102646]: 103
- C=CC(=O)NC1CCC(N2CCCS2(=O)=O)CC1 (centres unmarked) [PCM-0102568]: 107
- O=C(CCl)Nc1oncc1-c1ccccc1 [PCM-0102746]: 72.1
- Cc1ccc(NC(=O)NC(=O)CCl)c(C)c1 [PCM-0102171]: 78.8
- Cc1cccc(NC(=O)CCl)c1 [PCM-0102116]: 33.7
- O=C(CCl)Nc1cccc2c1N=S=N2 [PCM-0102329]: 38.2
- NS(=O)(=O)c1ccc(NC(=O)CCl)cc1 [PCM-0102807]: 53.8
- COc1ccc(C2=CCN(C(=O)CCl)CC2)cc1 [PCM-0102929]: 59.4
- C=CC(=O)N1CCC(C(=O)Nc2cc(C)on2)CC1 [PCM-0102477]: 99.4
- N#Cc1c(NC(=O)CCl)sc2c1CCC2 [PCM-0102452]: 87.2
- O=C(CCl)NC1CCCC(C(F)(F)F)C1 (centres unmarked) [PCM-0102862]: 95
- CCC(C)(C)NC(=O)CCl [PCM-0102161]: 99.3
- O=C(CCl)NC(=O)NCC1COc2ccccc2O1 (centres unmarked) [PCM-0102092]: 49
- O=C(CCl)N1CCN(C(=O)Nc2ccccc2)CC1 [PCM-0102257]: 34.8
- Cc1cc(C)c(NC(=O)CCl)c(C)c1 [PCM-0102352]: 84.2
- C=CC(=O)Nc1cc(F)ccc1C [PCM-0102917]: 103
- C=CC(=O)NC1CNC(=O)C1 (centres unmarked) [PCM-0102882]: 108
